# Measured target: human PD-L1/His fusion protein (human, UniProt Q9NZQ7 19-239)
# Sequence (Q9NZQ7 19-239 limits assumed): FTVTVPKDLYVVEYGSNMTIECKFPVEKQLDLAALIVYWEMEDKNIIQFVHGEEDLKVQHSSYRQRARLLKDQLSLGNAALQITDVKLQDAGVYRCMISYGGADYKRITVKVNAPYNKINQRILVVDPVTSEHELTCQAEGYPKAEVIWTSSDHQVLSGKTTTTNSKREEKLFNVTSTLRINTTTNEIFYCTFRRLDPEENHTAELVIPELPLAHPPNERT
# Protocol text: BLI Octet RED96, antibody on AHC sensor, single conc. PD-L1/His; test group 1
Task for the reader: assign each of the following binders its reported koff.
Only the number, expressed in s⁻¹, is required.

Query string: Given the entry HuEM0005-87-2 (antibody, human IgG1, V domains shown) VH: EVQLVQSGAEVKKPGASVKVSCKASGYTFTDYYINWVRQAPGQGLEWMGETIPNTGGTTYNQKFKARVTLTVDTSTSTVYMELSSLRSEDTAVYYCARYQSGSPFAYWGQGTTVTVSS VL: DIVMTQSPDSLAVSLGERATINCKASQNVGTAVAWYQQKPGQPPKLLIYSASNRYTGVPDRFTGSGSGTDFTLTISSLQAEDVAVYYCQQHYSTPYTFGGGTKLEIK , report its measured koff.
Result string: 0.000797

Query string: # input binder: HuEM0005-87-1 (antibody, human IgG1, V domains shown, also called HuEM0005-87-l) VH: EVQLVQSGAEVKKPGASVKVSCKASGYTFTDYYINWVRQAPGQGLEWMGETIPNTGGTTYNQKFKARVTMTVDTSTSTVYMELSSLRSEDTAVYYCARYQSGSPFAYWGQGTTVTVSS VL: DIVMTQSPDSLAVSLGERATINCKASQNVGTAVAWYQQKPGQPPKLLIYSASNRYTGVPDRFTGSGSGTDFTLTISSLQAEDVAVYYCQQHYSTPYTFGGGTKLEIK ; wanted: its koff
Result string: 0.000937

Query string: State the recorded koff for this entry: HuEM0005-90-6 (antibody, human IgG1, V domains shown) VH: EVQLVQSGAEVKKPGASVKVSCKASGYTFTSHSINWVRQATGQGLEWIGYMYIGNGYTEYNEKFKGRATLTSNTSISTAYMELSSLRSEDTAVYYCAKITPVVAPYVMDYWGQGTSVTVSS VL: DIQMTQSPSFLSASVGDRVTITCKASQDVGTAVAWYQQKPGKAPKLLIYWASTRHTGVPSRFSGSGSGTEFTLTISSLQPEDFATYYCQQYSSYPYTFGQGTKLEIK
Result string: 0.000254

Query string: Returns the measured koff for the input binder. Input: HuEM0005-87-4 (antibody, human IgG1, V domains shown) VH: EVQLVQSGAEVKKPGASVKVSCKASGYSFTDYYINWVRQAPGQGLEWIGETIPNTGGTTYNQKFKAKATLTVDKSTSTAYMELSSLRSEDTAVYYCARYQSGSPFAYWGQGTTVTVSS VL: DIVMTQSPDSLAVSLGERATINCKASQNVGTAVAWYQQKPGQPPKLLIYSASNRYTGVPDRFTGSGSGTDFTLTISSLQAEDVAVYYCQQHYSTPYTFGGGTKLEIK
Result string: 0.000768
